Provenance of the data: ChEMBL document CHEMBL1201862

Consider the following compounds and their measured GI50 readings.
system: UACC-257; assay: NCI tumour cell line growth inhibition, 48 h
Active and inactive are the calls of the source. Rule as the data show it: active = GI50 up to about 1.1 µM and inactive = higher.

Use the examples below as a reference point.
CC(=O)OC1/C(=C/c2ccc([N+](=O)[O-])cc2)C[C@H]2[C@@H]3CC=C4C[C@@H](OC(C)=O)CC[C@]4(C)[C@H]3CC[C@]12C (some centres undefined)    > 100 µM (inactive)
CC1C(/C=C/c2ccoc2)ON2CCCC12 (centres undefined)    > 100 µM (inactive)
N#CC1C(=O)NC2=C(CCOc3c2ccc2ccccc32)C1c1ccc(F)cc1 (centres undefined)    > 100 µM (inactive)

Item under review: Cc1c(NC(=O)Nc2c(Cl)cccc2Cl)c(=O)n(-c2ccccc2)n1C . Reported GI50? > 100 µM (inactive)

Item under review: O=C(NNc1ccc([N+](=O)[O-])cc1)C1OC(CO)C(O)C1O (centres undefined) . Reported GI50? > 100 µM (inactive)

Item under review: CCOC(=O)c1[nH]c2ccccc2c1C(=O)C[C@H](NC(=O)C(F)(F)F)C(=O)OC . Reported GI50? > 100 µM (inactive)

Item under review: O=C(O)c1cc2c(cc1CC(Cc1ccc3c(c1)CCC3)C(=O)O)CCC2 (centres undefined) . Reported GI50? > 100 µM (inactive)

Item under review: Cc1c(C(=O)/C=C/c2ccccc2Cl)[n+]([O-])c2ccccc2[n+]1[O-] . Reported GI50? 13.4 µM (inactive)

Item under review: Cc1cccc2nc3c(=O)[nH]c(=O)nc-3n(C)c12 . Reported GI50? 34.4 µM (inactive)

Item under review: CCOC(=O)C(NC(=O)c1cccc(Cl)c1)(Nc1ccc(S(=O)(=O)Nc2cc(C)on2)cc1)C(F)(F)F (centres undefined) . Reported GI50? > 100 µM (inactive)

Item under review: COc1cc(/C=C\C(=O)O)ccc1OCc1ccccc1 . Reported GI50? > 100 µM (inactive)

Item under review: CN(C)CCCOC(=O)C(c1ccccc1)C1(O)CCSCC1 (centres undefined) . Reported GI50? > 100 µM (inactive)

Item under review: CC(=O)NC1C(OCc2ccccc2)OC(COC(=O)CCCCCCCCCCNC(=O)CCNc2ccc([N+](=O)[O-])c3[nH]c4ccc(O)cc4c(=O)c23)C(O)C1OC(C)C(=O)N[C@H](C(=O)N[C@H](CCC(=O)O)C(N)=O)C(C)C (some centres undefined) . Reported GI50? > 100 µM (inactive)

Item under review: COC(=O)C#CCC1CCCC1C1SCCS1 (centres undefined) . Reported GI50? 51.3 µM (inactive)
